- Tested on: Vero E6 infected with SARS-CoV-2
- METHOD: inhibition of SARS-CoV-2 cytopathic effect; higher = more antiviral protection, active = above 15
- MEASUREMENT PARAMETERS: 10000 nM; 48 h
Allowed answers: True (active), False (inactive)

# count of solved cases: 5
Test call for this molecule, please: CC(C)[C@H](N)C(=O)OCCOCn1cnc2c(=O)nc(N)[nH]c21 [valaciclovir] False

// return assay outcome for NCCc1cc(O)c(O)cc1O [oxidopamine] False

// return assay outcome for CN(Cc1ccc(C(C)(C)C)cc1)Cc1cccc2ccccc12 [butenafine] False

Each molecule tested received a call. Report the one for O[C@H]1[C@H](O)[C@@H](O)CN2CC[C@H](O)[C@H]12 [castanospermine] . False

Which outcome did this test record for the molecule Nc1nc(N)c(N=O)c(OCC2CCCCC2)n1 ? True

Others:
Query: recorded result category for CC[N+](C)(CC)CC(=O)Nc1c(C)cccc1C [N-methyllidocaine-iodide] in this test False

Could you check what this test reported for CC(C)(C)N1CCC(c2ccccc2)(c2ccccc2)CC1 [budipine] ? False

Returns: the outcome recorded for CCCCC(=O)OCC(=O)[C@]1(O)Cc2c(O)c3c(c(O)c2[C@@H](O[C@H]2C[C@H](NC(=O)C(F)(F)F)[C@H](O)[C@H](C)O2)C1)C(=O)c1c(OC)cccc1C3=O [valrubicin] in this assay. False

Which outcome did this test record for the molecule CNC(=O)CN1CCC(Oc2cc3c(Nc4cccc(Cl)c4F)ncnc3cc2OC)CC1 ? False

Please indicate how the test categorized Cc1c(NC(=O)c2cc3c(s2)CCCC3)cccc1-c1cn(C)c(=O)c(Nc2ccc(C3C(=O)N(C)CCN3C)cc2)n1 (stereo in doubt) . False

Which result was noted for this molecule in the test: O=C([O-])c1ccccn1.O=C([O-])c1ccccn1.O=C([O-])c1ccccn1.[Cr+3] [chromium-picolinate] False

Hi, sorry to bother you, what did the test record for CCCCCNC(=N)N/N=C/c1c[nH]c2ccc(OC)cc12 [tegaserod] ? False

What outcome does the record of this test show for COc1ccc2[nH]c(SCc3ncc(C)c(OC)c3C)nc2c1 [omeprazole-sulfide] ? False

Per the assay record, what outcome was assigned to CNc1nc(NCc2ccc(NS(C)(=O)=O)cc2Cl)cc(-c2ccccn2)n1 ? False

How was CS(=O)(=O)c1ccc([C@@H](CC2CCCC2)C(=O)Nc2nccs2)cc1 classified in this test? False

How was CO/N=C1\C[C@]2(C[C@@H]3C[C@@H](C/C=C(\C)C[C@@H](C)/C=C/C=C4\CO[C@@H]5[C@H](O)C(C)=C[C@@H](C(=O)O3)[C@]45O)O2)O[C@H](/C(C)=C/C(C)C)[C@H]1C [moxidectin] classified in this test? False

How did this test come out for COc1ccc(-n2c(SCCCN3C(=O)c4cccc5cccc(c45)C3=O)nnc2-c2ccncc2)cc1 ? False
